Target: p38 MAPKα isoform (MAPK14) (Homo sapiens, UniProt Q16539)
Construct: purchased Life Technologies
Sequence (Q16539 whole entry, canonical isoform): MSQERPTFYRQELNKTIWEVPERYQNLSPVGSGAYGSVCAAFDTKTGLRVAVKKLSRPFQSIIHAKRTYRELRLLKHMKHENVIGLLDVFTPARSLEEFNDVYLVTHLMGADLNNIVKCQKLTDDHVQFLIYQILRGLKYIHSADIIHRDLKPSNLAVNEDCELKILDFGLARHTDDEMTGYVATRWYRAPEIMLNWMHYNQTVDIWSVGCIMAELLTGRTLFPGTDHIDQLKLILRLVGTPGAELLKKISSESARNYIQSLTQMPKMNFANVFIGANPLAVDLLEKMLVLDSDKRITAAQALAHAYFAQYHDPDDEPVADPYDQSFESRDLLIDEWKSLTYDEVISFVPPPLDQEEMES
Test: p38 MAPKα enzyme inhibition (Z-LYTE FRET)
Assay type: biochemical
Conditions: Table 2B, unit inferred; read-out: p38 MAPKα (Enzyme Profile)
pIC50: −log10 of the molar value.
Property Label: pIC50

{"columns": ["Molecule", "Measured On", "pIC50"],
 "data": [
  ["COCCNC(=O)c1cnc(Nc2cc(COc3ccc(NC(=O)Nc4cc(C(C)(C)C)nn4-c4ccc(OC)c(C)c4)c4ccccc34)ccn2)cn1 [Example 132]", "p38 MAPKα isoform (MAPK14) (Homo sapiens, UniProt Q16539)", 7.96],
  ["COCCN(CCOC)C(=O)c1cnc(Nc2cc(COc3ccc(NC(=O)Nc4cc(C(C)(C)C)nn4-c4cccc(C)c4)c4ccccc34)ccn2)cn1 [Example 76]", "p38 MAPKα isoform (MAPK14) (Homo sapiens, UniProt Q16539)", 7.82],
  ["Cc1cccc(-n2nc(C(C)(C)C)cc2NC(=O)Nc2ccc(OCc3ccnc(Nc4cnc(C(=O)NCCCO)cn4)c3)c3ccccc23)c1 [Example 231]", "p38 MAPKα isoform (MAPK14) (Homo sapiens, UniProt Q16539)", 7.82]
]}

====

Target: Syk (Homo sapiens, UniProt P43405)
Property Label: IC50

{"columns": ["Given Smiles", "Property Label", "Reading"],
 "data": [
  ["Cc1ccc(-n2nc(C(C)(C)C)cc2NC(=O)Nc2ccc(OCc3ccnc(Nc4cncc(CO)n4)c3)c3ccccc23)cc1", "IC50", "> 15.9 µM"],
  ["COc1cncc(Nc2cc(COc3ccc(NC(=O)Nc4cc(C(C)(C)C)nn4-c4ccc(C)cc4)c4ccccc34)ccn2)n1", "IC50", "> 15.9 µM"],
  ["Cc1ccc(-n2nc(C(C)(C)C)cc2NC(=O)Nc2ccc(OCc3ccnc(Nc4cncc(C5CC5)n4)c3)c3ccccc23)s1", "IC50", "8.83 µM"]
]}

Report IC50 from Syk (Homo sapiens, UniProt P43405) testing of `Cc1ccc(-n2nc(C(C)(C)C)cc2NC(=O)Nc2ccc(OCc3ccnc(Nc4cncc(CC(N)=O)n4)c3)c3ccccc23)cc1` > 15.2 µM

====

Target: p38MAPKγ (MAPK12) (Homo sapiens)
Construct: purchased Life Technologies
Sequence (P53778 whole entry): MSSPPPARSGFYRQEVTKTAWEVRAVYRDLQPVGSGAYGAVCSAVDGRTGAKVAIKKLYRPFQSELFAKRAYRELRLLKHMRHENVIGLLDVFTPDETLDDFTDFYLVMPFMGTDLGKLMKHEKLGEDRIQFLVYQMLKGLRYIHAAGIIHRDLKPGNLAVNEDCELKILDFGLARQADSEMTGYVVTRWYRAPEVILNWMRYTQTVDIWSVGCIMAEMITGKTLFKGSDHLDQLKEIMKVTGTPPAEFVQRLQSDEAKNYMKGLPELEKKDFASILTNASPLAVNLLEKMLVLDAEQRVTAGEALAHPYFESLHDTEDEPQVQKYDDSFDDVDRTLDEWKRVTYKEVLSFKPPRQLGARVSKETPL
Experiment: p38 MAPKγ enzyme inhibition (Z-LYTE FRET)
Type: biochemical
Conditions: Table 2B, unit inferred; read-out: p38 MAPKγ (Enzyme Profile)
pIC50: −log10 of the molar value.
Property Label: pIC50

Below, each entry is followed by its recorded pIC50 result.
{"columns": ["Given Smiles", "Measured On", "Reading"],
 "data": [
  ["Cc1ccc(-n2nc(C(C)(C)C)cc2NC(=O)Nc2ccc(OCc3ccnc(Nc4cnc(C(=O)NCCN5CCC[C@@H](O)C5)cn4)c3)c3ccccc23)cc1", "p38MAPKγ (MAPK12) (Homo sapiens)", 7.26],
  ["Cc1ccc(-n2nc(C(C)(C)C)cc2NC(=O)Nc2ccc(OCc3ccnc(Nc4cnc(C(=O)N5CCN(CCN(C)C)CC5)cn4)c3)c3ccccc23)cc1", "p38MAPKγ (MAPK12) (Homo sapiens)", 8.33],
  ["Cc1ccc(-n2nc(C(C)(C)C)cc2NC(=O)Nc2ccc(OCc3ccnc(Nc4cnc(C(=O)NC5CN(C)C5)cn4)c3)c3ccccc23)cc1", "p38MAPKγ (MAPK12) (Homo sapiens)", 7.38],
  ["Cc1ccc(-n2nc(C(C)(C)C)cc2NC(=O)Nc2ccc(OCc3ccnc(Nc4cncc(NC(C)C)n4)c3)c3ccccc23)cc1", "p38MAPKγ (MAPK12) (Homo sapiens)", 6.82]
]}

a: CCc1cncc(Nc2cc(COc3ccc(NC(=O)Nc4cc(C(C)(C)C)nn4-c4ccc(F)cc4)c4ccccc34)ccn2)n1
b: CCCc1cncc(Nc2cc(COc3ccc(NC(=O)Nc4cc(C(C)(C)C)nn4-c4ccc(C)c(F)c4)c4ccccc34)ccn2)n1
// returns a or b , whichever has the lower pIC50 When you have decided, please share the label of that item. b

A: COCc1ccc(-n2nc(C(C)(C)C)cc2NC(=O)Nc2ccc(OCc3ccnc(Nc4cnc(C(=O)N5CCCC5)cn4)c3)c3ccccc23)cc1
B: Cc1ccc(-n2nc(C(C)(C)C)cc2NC(=O)Nc2ccc(OCc3ccnc(Nc4cnc(C(=O)N5C[C@H](O)[C@@H](O)C5)cn4)c3)c3ccccc23)cc1
C: Cc1ccc(-n2nc(C(C)(C)C)cc2NC(=O)Nc2ccc(OCc3ccnc(Nc4cnc(C(=O)N5CC[C@@H](N(C)C)C5)cn4)c3)c3ccccc23)cc1
D: CN(C)c1cncc(Nc2cc(COc3ccc(NC(=O)Nc4cc(C(C)(C)C)nn4-c4ccc(O)cc4)c4ccccc34)ccn2)n1
Arrange these 4 compounds in increasing order of pIC50. Write the labels in rank order as requested. D, A, C, B

I: Cc1ccc(-n2nc(C(C)(C)C)cc2NC(=O)Nc2ccc(OCc3ccnc(Nc4cnc(C(=O)N(C)CCCO)cn4)c3)c3ccccc23)cc1
II: COc1cc(-n2nc(C(C)(C)C)cc2NC(=O)Nc2ccc(OCc3ccnc(Nc4cnccn4)c3)c3ccccc23)ccc1C
Could you point out whether the larger pIC50 belongs to I or to II ? The response must carry the label of the picked entry. I
(I: 6.99, II: 6.64)
